Entry source: paper PMC5041077

# Measured Target: CYP2C9 (Homo sapiens)
# Sequence (P11712 whole entry): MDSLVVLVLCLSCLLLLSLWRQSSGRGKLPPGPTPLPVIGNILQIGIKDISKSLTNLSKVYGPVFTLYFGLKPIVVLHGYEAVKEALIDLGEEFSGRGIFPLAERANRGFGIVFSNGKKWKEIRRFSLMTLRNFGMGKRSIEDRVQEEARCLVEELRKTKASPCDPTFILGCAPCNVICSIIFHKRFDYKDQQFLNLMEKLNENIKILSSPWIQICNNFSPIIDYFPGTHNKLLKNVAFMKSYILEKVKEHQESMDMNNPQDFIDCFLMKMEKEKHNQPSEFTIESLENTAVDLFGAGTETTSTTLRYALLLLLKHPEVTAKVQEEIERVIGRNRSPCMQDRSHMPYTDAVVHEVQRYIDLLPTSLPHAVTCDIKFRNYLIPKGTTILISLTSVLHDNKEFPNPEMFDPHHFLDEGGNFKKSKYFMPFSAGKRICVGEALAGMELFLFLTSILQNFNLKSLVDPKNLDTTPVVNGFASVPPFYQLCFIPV
pIC50: −log10 of the molar value.
Recorded Endpoint: pIC50

Exercise: Field: pIC50 (CYP2C9 (Homo sapiens)). Entry: COc1cc(/C=C/C(=O)N2CCC=CC2=O)cc(OC)c1OC
Solution: < 4.00

====

# Test: Piperlongumine microsomal protein binding (ultrafiltration)
# Type: in vitro ADME
# Assay Conditions: human, pooled human liver microsomes; PPL 127.70 μM; read-out: fumic (free fraction of the compound in the microsomal incubation)
Recorded Endpoint: fraction unbound at 127.7 μM
I'd appreciate a reply containing only the number, no unit.

Exercise: Please give the measured fraction unbound at 127.7 μM for this compound: COc1cc(/C=C/C(=O)N2CCC=CC2=O)cc(OC)c1OC
Solution: 0.76
